- testedOn: JAK2 (Homo sapiens, UniProt O60674)
- Construct: 5 μl of catalytic domain recombinant Kinase enzyme+Tyr peptide substrate (Invitrogen, CA)
- Sequence (O60674 849-1124 limits assumed): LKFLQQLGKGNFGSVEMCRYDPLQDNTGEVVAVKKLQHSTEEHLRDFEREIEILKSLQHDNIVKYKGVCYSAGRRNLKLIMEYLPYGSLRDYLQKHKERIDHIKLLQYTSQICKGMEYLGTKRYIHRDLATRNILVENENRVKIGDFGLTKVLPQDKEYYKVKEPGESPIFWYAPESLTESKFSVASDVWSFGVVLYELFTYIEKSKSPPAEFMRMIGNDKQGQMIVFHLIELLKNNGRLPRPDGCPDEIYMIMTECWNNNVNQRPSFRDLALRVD
- testDetails: Z'-LYTE kinase assay JAK2
measuredMetric: IC50

Would you please look over these solved cases?
- CN(C)C(=O)c1ccc(Nc2cc(NCc3ccccc3)c(C(N)=O)cn2)cc1F [Example 273]: 100 to 1000 nM
- COc1ccc(Nc2cc(NCc3cccc4[nH]ccc34)c(C(N)=O)cn2)cc1 [Example 294]: 10 to 100 nM
- NC(=O)c1cnc(Nc2cccc(OCCN3CCCC3)c2)cc1NC1(c2ccccc2)CC1 [Example 363]: 100 to 1000 nM

Let us move to another entry and its IC50.
QUERY: Lab request: please report IC50 under test system JAK2 (Homo sapiens, UniProt O60674) for NC(=O)c1cnc(Nc2ccc(S(=O)(=O)N3CCC3)cc2)cc1NCc1ccccc1 [Example 47]
RESULT: > 1000 nM
